- MEASURED ON: human TLR7 (Homo sapiens)
- Sequence (Q9NYK1 27-1049): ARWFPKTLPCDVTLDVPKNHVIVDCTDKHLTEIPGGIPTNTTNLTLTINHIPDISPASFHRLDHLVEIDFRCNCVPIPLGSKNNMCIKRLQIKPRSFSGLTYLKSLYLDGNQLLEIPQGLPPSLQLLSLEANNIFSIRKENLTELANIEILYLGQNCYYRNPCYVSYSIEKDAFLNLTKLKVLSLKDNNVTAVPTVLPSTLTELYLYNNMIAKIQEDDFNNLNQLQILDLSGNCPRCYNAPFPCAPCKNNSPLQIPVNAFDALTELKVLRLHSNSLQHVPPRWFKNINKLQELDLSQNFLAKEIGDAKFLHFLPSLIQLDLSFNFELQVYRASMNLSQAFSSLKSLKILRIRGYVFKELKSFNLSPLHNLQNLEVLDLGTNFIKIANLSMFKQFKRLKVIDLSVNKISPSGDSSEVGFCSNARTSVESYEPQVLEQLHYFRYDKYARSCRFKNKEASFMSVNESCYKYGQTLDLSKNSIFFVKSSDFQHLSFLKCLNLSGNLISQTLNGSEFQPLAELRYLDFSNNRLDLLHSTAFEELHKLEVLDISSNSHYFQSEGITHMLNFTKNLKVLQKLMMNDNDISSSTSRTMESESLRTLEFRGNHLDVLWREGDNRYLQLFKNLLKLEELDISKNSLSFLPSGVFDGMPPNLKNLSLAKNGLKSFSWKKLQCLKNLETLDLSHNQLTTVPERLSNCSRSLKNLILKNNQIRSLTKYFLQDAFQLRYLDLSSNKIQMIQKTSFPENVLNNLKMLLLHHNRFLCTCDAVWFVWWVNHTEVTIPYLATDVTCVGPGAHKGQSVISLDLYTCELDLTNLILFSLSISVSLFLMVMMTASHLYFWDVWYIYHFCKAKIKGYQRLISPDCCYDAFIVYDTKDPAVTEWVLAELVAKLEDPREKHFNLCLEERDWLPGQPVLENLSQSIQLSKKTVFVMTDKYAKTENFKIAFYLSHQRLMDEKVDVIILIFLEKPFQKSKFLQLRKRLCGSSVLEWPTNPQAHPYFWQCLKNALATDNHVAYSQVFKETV
- TEST METHOD NOTES: HEK-Blue human TLR7 cells NF-κB SEAP reporter assay
- RUN PARAMETERS: stimulation for 20 hours, Quanti Blue 640 nm
- Procedure: For TLR8 and TLR7 activity testing, HEK-Blue human TLR8 or TLR7 cells (Invivogen, San Diego, Calif., USA) are used, respectively. These cells are designed for studying the stimulation of human TLR8 or TLR7 by monitoring the activation of NF-κB. […] The cell culture supernatant SEAP reporter activity was determined using Quanti Blue kit (Invivogen, San Diego, Calif., USA) at a wavelength of 640 nm, a detection medium that turns purple/blue in the presence of alkaline phosphatase. […]
pEC50: −log10 of the molar value.
MEASUREMENT NAME: pEC50

Please review the following examples before continuing.
>  <COMPOUND>
CCCN(CCC)C(=O)C1=Cc2ccc(C(=O)N[C@H](C)c3ccccc3)cc2N=C(N)C1

>  <MEASURED ON>
human TLR7 (Homo sapiens)

>  <pEC50>
4.46

$$$$
>  <COMPOUND>
CCCN(CCC)C(=O)C1=Cc2ccc(C(=O)NC3CCN(c4ccccc4)C3)cc2N=C(N)C1 (stereo not drawn)

>  <MEASURED ON>
human TLR7 (Homo sapiens)

>  <pEC50>
< 4.00

$$$$

Switching to the query record.
Noted for CCCN(CCC)C(=O)C1=Cc2ccc(C(=O)N[C@@H]3CCN(c4ccccc4)C3)cc2N=C(N)C1 : its pEC50 reads < 4.00

Taken from patent US10544102B2.
